Counter-ions that a name gives are not always drawn.
# melting point annotations

compound	melting point
Cc1cc(C(=O)N2CCN(c3cccnc3)CC2)n(-c2cccc(F)c2)n1	132 °C
CNC(=O)c1cccc(N2CCN(C(=O)c3cc(C)nn3-c3ccccc3)CC2)c1	180 °C
O=C(c1cccn1-c1ccccc1)N1CCN(c2cccnc2)CC1 (as salt: hydrochloride)	180 °C
O=C(c1cccn1-c1ccccc1)N1CCN(c2cccc(Cl)c2)CC1	105 °C
Cc1cc(C(=O)N2CCN(c3cccc(C(=O)OC(C)(C)C)c3)CC2)n(-c2ccccc2)n1	144 °C
O=C(c1cc(C(F)(F)F)nn1-c1ccccc1)N1CCN(c2cccc(Cl)c2)CC1	160 °C
Cc1cc(C)cc(N2CCN(C(=O)c3cc(C)nn3-c3ccccc3)CC2)c1	109 °C

Please list melting point recorded for the compound Cc1cc(C(=O)N2CCN(c3cc(F)c(F)c(F)c3)CC2)n(-c2ccccc2)n1
204 °C
